# run.description: blockers of an Epstein-Barr virus protein-peptide interaction – biochemical, fluorescence polarization, dose response (AID 1419)
# experimental.conditions: cell-free protein-peptide binding, 2 h
The source made the active and inactive calls. The rule behind the calls is not given here.
Outcomes: active, inactive

molecule=CCCCOc1[nH]c2nc(-c3ccco3)n(Cc3ccco3)c(=N)c2c1C#N class_assignment=inactive
molecule=Cc1ccc(-c2cc(-c3ccco3)c(C#N)c(=O)[nH]2)cc1 class_assignment=inactive
molecule=CCN(CC)c1ccc(/C=C(/C#N)c2nc3ccc(C)cc3[nH]2)c(OC(C)C)c1 class_assignment=active
molecule=Cc1cccc(NC(=O)CSc2nnnn2C)n1 class_assignment=inactive
molecule=O=C(N=Nc1c(O)[nH]c2ccc([N+](=O)[O-])cc12)c1cc(-c2ccccc2Cl)nc2ccccc12 class_assignment=active
molecule=COc1ccc(/C=N/N=C2/CC(C)(C)Cc3n[nH]c(=O)cc32)cc1 class_assignment=active
molecule=CSc1nc(N(CCO)CCO)c2sc3nc(-c4ccco4)c4c(c3c2n1)CCC4 class_assignment=inactive
molecule=CCOC(=O)c1cc2n(c1N)-c1ccccc1C2=O class_assignment=active
molecule=CCCCn1c(=O)[nH]c2nc3cc(NC(C)=O)ccc3nc2c1=O class_assignment=active
molecule=CC(=O)Oc1ccc2c(c1)Oc1cc(OC(C)=O)ccc1C21OC(=O)c2ccccc21 class_assignment=active
molecule=Nc1nnc(-c2cc3c(ccc4ccccc43)oc2=O)s1 class_assignment=active
molecule=O=c1cc(C(F)(F)F)c2cc3c4c(c2o1)CCCN4CCC3 class_assignment=active
molecule="Clc1ccc(C2=CC(c3ccco3)n3ncnc3N2)cc1 (centres undefined)" class_assignment=active
molecule=O=C(Cn1c2ccccc2c(=O)c2ccccc21)N/N=C/c1ccc(N2CCCC2)c([N+](=O)[O-])c1 class_assignment=inactive
molecule=O=C(NC1CC1)c1cc(-c2ccco2)nc2ccccc12 class_assignment=active
molecule=NC(=S)n1[nH]c(-c2ccc([N+](=O)[O-])cc2)c(N=Nc2cccc([N+](=O)[O-])c2)c1=O class_assignment=active
molecule=O=C1c2cccc3c(O)ccc(c23)C(=O)N1Cc1ccco1 class_assignment=active
molecule=O=[N+]([O-])c1ccc(O)c(N=Cc2sc3ccccc3c2O)c1 class_assignment=inactive
molecule=Cn1cc(/C=C2\SC(=O)NC2=S)c2ccccc21 class_assignment=inactive
molecule=O=C(N/N=C/c1ccc(F)cc1)c1cc(-c2ccco2)nc2ccccc12 class_assignment=active
molecule="O=c1[nH]c2cc3c(cc2cc1CN(Cc1nnnn1CC1CCCO1)C1CCCCC1)OCO3 (centres undefined)" class_assignment=inactive
molecule=Cc1cc(/C=C2\SC(=S)N(Cc3ccco3)C2=O)c(C)n1-c1ccccc1 class_assignment=active
molecule=CCN(CC)c1ccc2c(c1)oc(=O)c1c(Cl)cc(=O)oc12 class_assignment=active
molecule=Nc1cccc2c1C(=O)N(CC(=O)NC13CC4CC(CC(C4)C1)C3)C2=O class_assignment=active
molecule=CC(C)(C)c1ccc(C(=O)Nc2cccc3c(=O)[nH][nH]c(=O)c23)cc1 class_assignment=active
molecule="N#CC1=C(N)C(C#N)(C#N)C(c2cccnc2)C2CCCC=C12 (centres undefined)" class_assignment=active
molecule=O=C(c1ccc2nc(-c3ccco3)c(-c3ccco3)nc2c1)N1CCN(c2ncccn2)CC1 class_assignment=inactive
molecule=CCSc1nnc(NC(=O)C(C(F)(F)F)C(F)(F)F)s1 class_assignment=inactive
molecule="Cc1ccc(CSc2nnc3c(n2)OC2(Nc4ccccc4-3)C(=O)Nc3ccc(F)cc32)cc1 (centres undefined)" class_assignment=active

----------
# run.description: blockers of an Epstein-Barr virus protein-peptide interaction – biochemical, fluorescence polarization, dose response (AID 1419)
# experimental.conditions: cell-free protein-peptide binding, 2 h
The source made the active and inactive calls. No rule for the calls is given here.
Outcome codes: active, inactive

molecule=O=c1cc2oc3cc(O)c(O)cc3c(-c3ccccc3O)c-2cc1O class_assignment=active
molecule=Cc1ccc(-c2cn3nc(-c4ccccc4)c(-c4ccccc4)nc3n2)cc1 class_assignment=active
molecule="CCOC(=O)C1=NNC(C(=O)c2ccc(Cl)cc2)C1c1ccc(OC)cc1 (centres undefined)" class_assignment=inactive
molecule=O=C(O)c1ccc2c3c(ncnc13)-c1ccccc1C2=O class_assignment=inactive
molecule=CN1Cc2c(c(C#N)c(N)n(C)c2=S)CC1(C)C class_assignment=inactive
molecule=N=c1oc2ccc3ccccc3c2cc1-c1nc(-c2ccccc2)cs1 class_assignment=active
molecule=O=Cc1cnc(N2CCCCC2)s1 class_assignment=inactive
molecule=O=C(O)COn1c(-c2ccccc2)nc2ccc([N+](=O)[O-])cc21 class_assignment=inactive
molecule="CC1CCc2c(sc3nc(CN4CCOCC4)nc(NS(=O)(=O)c4cccc([N+](=O)[O-])c4)c23)C1 (centres undefined)" class_assignment=inactive
molecule=CSc1nc(SCC(=O)O)c2sc3nc(-c4ccccc4)c4c(c3c2n1)CCC4 class_assignment=active
molecule=COc1cc(CN2CCN(c3cccc(C)c3C)CC2)cc(OC)c1O class_assignment=inactive
molecule=COC(=O)c1c(Cl)c2n3ccccc3c(C)c(-c3ccccc3)c-2c1C(=O)OC class_assignment=active
molecule=O=C1c2cccc3c([N+](=O)[O-])ccc(c23)C(=O)N1Cc1cccnc1 class_assignment=inactive
molecule="CC(C)(C)N1CC(c2nc3ccccc3n2CCOc2ccccc2)CC1=O (centres undefined)" class_assignment=active

----------
# run.description: blockers of an Epstein-Barr virus protein-peptide interaction – biochemical, fluorescence polarization, dose response (AID 1419)
# experimental.conditions: cell-free protein-peptide binding, 2 h
Activity calls are given as the source filed them. How the calls were made is not given here.
Outcomes: Y = active, N = inactive

compound=CN1CCN(c2ccc([N+](=O)[O-])c3no[n+]([O-])c23)CC1 class_assignment=Y
compound=Cc1ccc2c3c(cccc13)-c1ccccc1C2=O class_assignment=Y
compound=CC(C)Oc1ccc(NC(=O)CCC(=O)O)cc1 class_assignment=N
compound=CCOc1ccc2nc(N3CCCN(C(=O)Nc4ccccc4C)CC3)c(C#N)cc2c1 class_assignment=Y
compound=CCCCNC(=O)CN1C(=O)c2cccc(N)c2C1=O class_assignment=Y
compound=CS(=O)(=O)n1nc(-c2ccc(Cl)cc2)nc1SCc1ccccc1 class_assignment=N
compound="CCOC(=O)C1CCCN(c2ccc([N+](=O)[O-])c3nonc23)C1 (configuration not stated)" class_assignment=Y
compound=Cc1cc(C)n2c(SC/C(O)=C(\C#N)c3nc4ccccc4[nH]3)nnc2n1 class_assignment=Y
compound=CCOc1ccc2nc(N3C(=O)/C(=C/c4ccc(Cl)cc4)NC3=S)sc2c1 class_assignment=N
compound=CSC1=N/C(=C\c2ccccc2F)C(=O)S1 class_assignment=N
compound=COc1cc(N2CCCC2)c(OC)cc1/C=C(/C#N)c1ccc(F)cc1 class_assignment=Y
compound="COC(=O)C1=COC(C)C2CN3CCc4c([nH]c5cc(OC)c(OC)cc45)C3CC12 (configuration not stated)" class_assignment=Y
compound=CC1(c2ccc3noc(-c4ccc(F)cc4)c3c2)OCCO1 class_assignment=Y
compound=O=C(CCN1C(=O)COc2ccccc21)NCc1ccco1 class_assignment=N
compound=CN1CCN(C2=Nc3c(Cl)cc(Cl)c4cccc2c34)CC1 class_assignment=Y
compound=O=C(Nc1ccc(-n2cnnn2)cc1)C1CCC1 class_assignment=N
compound=CCOC(=O)c1c(=O)n(O)c2ccc(OC)cc2[n+]1[O-] class_assignment=Y
compound="CCOC(=O)c1ccc2c(c1)C1C=CCC1C(C(=O)O)N2 (configuration not stated)" class_assignment=Y
compound=C=CCN1C(=O)/C(=C/c2ccc(N(C)C)cc2)S/C1=N\c1nnc(CC)s1 class_assignment=Y
compound=N=C1S/C(=C\c2ccc(-c3cccc(Cl)c3)o2)C(=O)N1c1nccs1 class_assignment=Y
compound=O=C(NCc1ccco1)c1c2c(nc3ccccc13)CCC2 class_assignment=N
compound="CC1(C)CC(=O)C2=C(C1)OC(N)=C(C#N)C2c1cc2c(cc1[N+](=O)[O-])OCO2 (configuration not stated)" class_assignment=Y
compound=COc1ccc(N=C2S/C(=C\c3ccc(OCC(=O)O)cc3)C(=O)N2CCc2c[nH]c3ccccc23)cc1 class_assignment=Y
compound="CCn1c(SC(C)C(=O)O)nc2sc3c(c2c1=O)CCC3 (configuration not stated)" class_assignment=N
compound=N=c1oc2cc(O)ccc2cc1C(=O)Nc1nc2ccccc2s1 class_assignment=Y
compound=Cc1ccc[n+](-c2nc([O-])sc2C=O)c1 class_assignment=Y
compound=CCn1c2ccccc2c2cc(NC(=O)c3coc(=O)c(Br)c3)ccc21 class_assignment=Y

----------
# run.description: blockers of an Epstein-Barr virus protein-peptide interaction – biochemical, fluorescence polarization, dose response (AID 1419)
# experimental.conditions: cell-free protein-peptide binding, 2 h
Activity calls are given as the source filed them. How the calls were made is not given here.
Possible outcomes: active, inactive

molecule=Cc1ccc(/C=c2\sc3nc(-c4cccnc4)nn3c2=O)cc1 class_assignment=inactive
molecule="COc1ccc2ccccc2c1C(O)c1nccn1C (stereo not drawn)" class_assignment=active
molecule=CCO[C@H]1OC(C(=O)N2CCCCCCC2)=C[C@@H](c2ccc(C(F)(F)F)cc2)[C@@H]1CCCO class_assignment=inactive
molecule=Cc1nn(-c2ccccc2)c(N2CCCC2)c1/C=C1\N=C(c2ccccc2)OC1=O class_assignment=active
molecule=COc1ccc(S(=O)(=O)NCCc2ccc(F)cc2)cc1 class_assignment=inactive
molecule=COc1cc(/C=C2\SC(=O)N(c3cccc(Cl)c3)C2=O)cc([N+](=O)[O-])c1O class_assignment=active
molecule="Cc1ccc(N2C(=O)C3C(C2=O)C(C(=O)c2ccc(Cl)cc2)N2CCCC32)cc1 (stereo not drawn)" class_assignment=inactive
molecule=Cc1cccc(N2C(=O)c3cccc4c(N(C)CCO)ccc(c34)C2=O)c1 class_assignment=active
molecule=CCN(CC)c1ccc(/C=c2/sc3nnc(-c4ccccc4C)n3c2=O)cc1 class_assignment=active
molecule=COc1ccc2c(C=Nc3c(C)n(C)n(-c4ccccc4)c3=O)c(O)n(Cc3ccco3)c(=O)c2c1 class_assignment=active
molecule=Nc1ccc2c(c1Cl)C(=O)c1ccc(N)c(Cl)c1C2=O class_assignment=active
molecule="O=C(COC(=O)c1cccnc1)NC1CCCc2ccccc21 (stereo not drawn)" class_assignment=inactive
molecule=CCCN1C(=O)/C(=C/C=C2\N(CC)c3ccccc3C2(C)C)SC1=S class_assignment=active
molecule=CCCOc1cc(N(CC)CC)ccc1/C=C(/C#N)c1nc2ccc(C)cc2[nH]1 class_assignment=active
molecule="O=C1CCC(=O)N1c1nc2n(n1)C(c1ccccc1)C=C(c1ccc(Br)cc1)N2 (stereo not drawn)" class_assignment=inactive
molecule="COc1cc(C2C(C#N)=C(N)OC3=C2C(=O)CCC3)c([N+](=O)[O-])cc1OC (stereo not drawn)" class_assignment=inactive
molecule="COc1cc(C2C=C(c3cccs3)Nc3ncnn32)cc(OC)c1OC (stereo not drawn)" class_assignment=active
molecule="COc1ccc(OC)c(C2C3CN(C(C)C)CC=C3C(C#N)=C(N)C2(C#N)C#N)c1 (stereo not drawn)" class_assignment=active
molecule=Cc1ccc(NC(=O)CN2C(=O)S/C(=C/c3ccc(O)c([N+](=O)[O-])c3)C2=O)cc1C class_assignment=inactive
molecule=N#C/C(=C\C=C\c1ccccc1)c1nc(-c2ccc3c(c2)OCO3)cs1 class_assignment=active
molecule=c1ccc(-c2cn3nc4c(nc3n2)CCCC4)cc1 class_assignment=active
molecule="COc1ccccc1N1C(=O)C2C(C(=O)c3ccccc3)=NN(c3ccc(C)cc3)C2C1=O (stereo not drawn)" class_assignment=active
molecule=O=C(Nc1ccc(Cl)c(Cl)c1)Nc1nnc(-c2ccncc2)s1 class_assignment=active
molecule="COc1ccc2nc(N3CCCC(O)C3)c(C#N)cc2c1 (stereo not drawn)" class_assignment=active
molecule=CC(C)(C)NC(=O)c1sccc1C(=O)O class_assignment=inactive
molecule="CCOCCCNc1nc2c(C)cccn2c(=O)c1/C=C1\\SC(=S)N(C(C)CC)C1=O (stereo not drawn)" class_assignment=active
molecule="COC(=O)C(Nc1nccs1)(OC)C(F)(F)F (stereo not drawn)" class_assignment=active
molecule=COC(=O)C[n+]1cccc2ccccc21 class_assignment=active
